Recorded measurements of association response, one per entry
Tested on: recombinant human OX40 fused to a His-tag (Acro Biosystems, cat. no. OX0-H5224) (human) (UniProt P43489)
Sequence (P43489 29-214 limits assumed): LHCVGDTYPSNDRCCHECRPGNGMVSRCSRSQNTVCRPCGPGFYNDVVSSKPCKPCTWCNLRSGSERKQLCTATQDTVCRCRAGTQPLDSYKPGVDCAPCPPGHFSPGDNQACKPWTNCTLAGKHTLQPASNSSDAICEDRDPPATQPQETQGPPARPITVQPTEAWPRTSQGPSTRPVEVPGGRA
Assay notes: BLI cross-block; first Ab (competitor): IgG1-CD134-h3C8
Numeric answer only, unit nm assumed.

INSERT INTO measurements (binder, readout_kind, units, readout_number) VALUES
  ('IgG1-CD134-RG7888 (antibody, INN chains, looked up, V domains shown, IgG1) VH: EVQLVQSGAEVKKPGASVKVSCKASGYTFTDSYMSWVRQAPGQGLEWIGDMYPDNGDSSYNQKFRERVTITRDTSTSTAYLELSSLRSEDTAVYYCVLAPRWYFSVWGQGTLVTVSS VL: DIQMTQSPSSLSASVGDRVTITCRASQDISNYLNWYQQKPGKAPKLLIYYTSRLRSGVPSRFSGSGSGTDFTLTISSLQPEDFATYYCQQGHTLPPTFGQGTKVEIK', 'association response', 'nm', 0.41),
  ('IgG1-CD134-Hu106 (antibody, from another filing, V domains shown) VH: QVQLVQSGSELKKPGASVKVSCKASGYTFTDYSMHWVRQAPGQGLKWMGWINTETGEPTYADDFKGRFVFSLDTSVSTAYLQISSLKAEDTAVYYCANPYYDYVSYYAMDYWGQGTTVTVSS VL: DIQMTQSPSSLSASVGDRVTITCKASQDVSTAVAWYQQKPGKAPKLLIYSASYLYTGVPSRFSGSGSGTDFTFTISSLQPEDIATYYCQQHYSTPRTFGQGTKLEIK', 'association response', 'nm', 0.01),
  ('IgG1-CD134-ABBV368 (antibody, INN chains, looked up, V domains shown, IgG1) VH: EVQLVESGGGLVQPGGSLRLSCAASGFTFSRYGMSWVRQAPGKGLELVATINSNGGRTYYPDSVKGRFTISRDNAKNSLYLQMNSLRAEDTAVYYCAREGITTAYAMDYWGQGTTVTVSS VL: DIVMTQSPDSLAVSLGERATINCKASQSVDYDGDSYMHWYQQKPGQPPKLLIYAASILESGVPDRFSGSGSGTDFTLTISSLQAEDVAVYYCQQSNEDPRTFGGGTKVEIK', 'association response', 'nm', -0.03);

We next turn to a different binder, shown below.
-- ask Answer with reported association response of IgG1-CD134-GBR830 (antibody, INN chains, looked up, V domains shown, IgG1) VH: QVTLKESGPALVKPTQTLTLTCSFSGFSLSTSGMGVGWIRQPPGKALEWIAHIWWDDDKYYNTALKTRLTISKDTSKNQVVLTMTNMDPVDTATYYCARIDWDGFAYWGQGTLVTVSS VL: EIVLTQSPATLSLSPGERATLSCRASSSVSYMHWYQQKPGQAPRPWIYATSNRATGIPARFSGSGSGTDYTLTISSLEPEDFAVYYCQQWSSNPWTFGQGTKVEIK
-- reply -0.02
